targetOrTestSystem: T1, RAS Q61WT[55-64] pHLA-A1 (human)
T1 construct: also called Q61WT pHLA-A1; H/K/N RAS WT(55-64) peptide on HLA-A1
protocolDescription: flow cytometry: scFv phage supernatant on peptide-pulsed SigM5 cells (HLA-A1+), median fluorescence intensity
recordedMetric: binding result

{"binder": "H/K/N RAS Q61H_A1_cl9 (scFv) scFv: DIQMTQSPSSLSASVGDRVTITCRASQDVNTAVAWYQQKPGKAPKLLIYSASFLYSGVPSRFSGSRSGTDFTLTISSLQPEDFATYYCQQGEYSPLTFGQGTKVEIKRTGGGSGGGGSGGGASEVQLVESGGGLVQPGGSLRLSCAASGFNVFESAMHWVRQAPGKGLEWVAWVYGSYDYTYYADSVKGRFTISADTSKNTAYLQMNSLRAEDTAVYYCSRSFAYFQAMDYWGQGTLVTVSS", "recordedMetric": "binding result", "measuredResult": "no binding"}
{"binder": "H/K/N RAS Q61H_A1_cl3 (scFv) scFv: DIQMTQSPSSLSASVGDRVTITCRASQDVNTAVAWYQQKPGKAPKLLIYSASFLYSGVPSRFSGSRSGTDFTLTISSLQPEDFATYYCQQSIYYPFTFGQGTKVEIKRTGGGSGGGGSGGGASEVQLVESGGGLVQPGGSLRLSCAASGFNLYTSQMHWVRQAPGKGLEWVALVYPGYYVTSYADSVKGRFTISADTSKNTAYLQMNSLRAEDTAVYYCSRGAYYYSSAMDYWGQGTLVTVSS", "recordedMetric": "binding result", "measuredResult": "no binding"}
{"binder": "H/K/N RAS Q61H_A1_cl8 (scFv) scFv: DIQMTQSPSSLSASVGDRVTITCRASQDVNTAVAWYQQKPGKAPKLLIYSASFLYSGVPSRFSGSRSGTDFTLTISSLQPEDFATYYCQQSFSTPITFGQGTKVEIKRTGGGSGGGGSGGGASEVQLVESGGGLVQPGGSLRLSCAASGFNISEYLMHWVRQAPGKGLEWVALLPPGLSYTNYADSVKGRFTISADTSKNTAYLQMNSLRAEDTAVYYCSRYGYYAFDYWGQGTLVTVSS", "recordedMetric": "binding result", "measuredResult": "no binding"}
{"binder": "H/K/N RAS Q61H_A1_cl10 (scFv) scFv: DIQMTQSPSSLSASVGDRVTITCRASQDVNTAVAWYQQKPGKAPKLLIYSASFLYSGVPSRFSGSRSGTDFTLTISSLQPEDFATYYCQQTYYTPVTFGQGTKVEIKRTGGGSGGGGSGGGASEVQLVESGGGLVQPGGSLRLSCAASGFNISHYVMHWVRQAPGKGLEWVADFYPHSDSTYYADSVKGRFTISADTSKNTAYLQMNSLRAEDTAVYYCSRYQSYSFDYWGQGTLVTVSS", "recordedMetric": "binding result", "measuredResult": "no binding"}
{"binder": "H/K/N RAS Q61H_A1_cl2 (scFv) scFv: DIQMTQSPSSLSASVGDRVTITCRASQDVNTAVAWYQQKPGKAPKLLIYSASFLYSGVPSRFSGSRSGTDFTLTISSLQPEDFATYYCQQYDYYPFTFGQGTKVEIKRTGGGSGGGGSGGGASEVQLVESGGGLVQPGGSLRLSCAASGFNISYEAMHWVRQAPGKGLEWVALIYPNHGITSYADSVKGRFTISADTSKNTAYLQMNSLRAEDTAVYYCSRYSSSAMDYWGQGTLVTVSS", "recordedMetric": "binding result", "measuredResult": "no binding"}

Lab note: next binder to report on.
Challenge: Form field: reported binding result of H/K/N RAS Q61H_A1_cl5 (scFv) scFv: DIQMTQSPSSLSASVGDRVTITCRASQDVNTAVAWYQQKPGKAPKLLIYSASFLYSGVPSRFSGSRSGTDFTLTISSLQPEDFATYYCQQSSYSPWTFGQGTKVEIKRTGGGSGGGGSGGGASEVQLVESGGGLVQPGGSLRLSCAASGFNISPWDMHWVRQAPGKGLEWVAQLYPSSGYTNYADSVKGRFTISADTSKNTAYLQMNSLRAEDTAVYYCSRSVYWSLDYWGQGTLVTVSS
Response given: no binding

Ref: patent US20230051847A1
